settings: in n-propanol, 313.15 K
measured_parameter: solubility (mole fraction)
Keep the answer to the number alone.

Find the recorded solubility (mole fraction) belonging to c1ccc2[nH]c(-c3cscn3)nc2c1 and report it.
0.00282

---

conditions: in isopropanol, 313.15 K
measured_parameter: solubility (mole fraction)
API note: the answer field is a bare number with no unit suffix.

Which solubility (mole fraction) value belongs to c1ccc2[nH]c(-c3cscn3)nc2c1 ?
0.00155

---

details: in water, 288.15 K
measured_parameter: solubility (mole fraction)
Respond with the number and no other words.

What solubility (mole fraction) value was documented for this compound, c1ccc2[nH]c(-c3cscn3)nc2c1 ?
2.67e-07

---

conditions: in acetonitrile, 283.15 K
measured_parameter: solubility (mole fraction)
Give the figure by itself; no unit, no explanation.

# get_value(readout='solubility (mole fraction)', item= c1ccc2[nH]c(-c3cscn3)nc2c1 )
0.000106

---

conditions: in water, 283.15 K
measured_parameter: solubility (mole fraction)
Could you respond with only the numeric value?

Please give the measured solubility (mole fraction) for this compound: c1ccc2[nH]c(-c3cscn3)nc2c1
2.04e-07

---

conditions: in acetonitrile, 323.15 K
measured_parameter: solubility (mole fraction)
Just the number, please, no unit after it.

Name the recorded solubility (mole fraction) for c1ccc2[nH]c(-c3cscn3)nc2c1 .
0.000419

---

conditions: in acetonitrile, 308.15 K
measured_parameter: solubility (mole fraction)
Number only, no unit.

Returns the measured solubility (mole fraction) for the input compound. Input: c1ccc2[nH]c(-c3cscn3)nc2c1
0.000259

---

details: in isopropanol, 323.15 K
measured_parameter: solubility (mole fraction)
Output spec: single numeric token, no unit.

Consider the molecule c1ccc2[nH]c(-c3cscn3)nc2c1 and give its measured solubility (mole fraction).
0.00193

---

details: in isopropanol, 293.15 K
measured_parameter: solubility (mole fraction)

Can you share its solubility (mole fraction)? I mean this compound: c1ccc2[nH]c(-c3cscn3)nc2c1
0.000915
